Measured inhibition at […], listed per entry.
study-system: hERG (KCNH2) (Homo sapiens)
Sequence (Q12809 whole entry): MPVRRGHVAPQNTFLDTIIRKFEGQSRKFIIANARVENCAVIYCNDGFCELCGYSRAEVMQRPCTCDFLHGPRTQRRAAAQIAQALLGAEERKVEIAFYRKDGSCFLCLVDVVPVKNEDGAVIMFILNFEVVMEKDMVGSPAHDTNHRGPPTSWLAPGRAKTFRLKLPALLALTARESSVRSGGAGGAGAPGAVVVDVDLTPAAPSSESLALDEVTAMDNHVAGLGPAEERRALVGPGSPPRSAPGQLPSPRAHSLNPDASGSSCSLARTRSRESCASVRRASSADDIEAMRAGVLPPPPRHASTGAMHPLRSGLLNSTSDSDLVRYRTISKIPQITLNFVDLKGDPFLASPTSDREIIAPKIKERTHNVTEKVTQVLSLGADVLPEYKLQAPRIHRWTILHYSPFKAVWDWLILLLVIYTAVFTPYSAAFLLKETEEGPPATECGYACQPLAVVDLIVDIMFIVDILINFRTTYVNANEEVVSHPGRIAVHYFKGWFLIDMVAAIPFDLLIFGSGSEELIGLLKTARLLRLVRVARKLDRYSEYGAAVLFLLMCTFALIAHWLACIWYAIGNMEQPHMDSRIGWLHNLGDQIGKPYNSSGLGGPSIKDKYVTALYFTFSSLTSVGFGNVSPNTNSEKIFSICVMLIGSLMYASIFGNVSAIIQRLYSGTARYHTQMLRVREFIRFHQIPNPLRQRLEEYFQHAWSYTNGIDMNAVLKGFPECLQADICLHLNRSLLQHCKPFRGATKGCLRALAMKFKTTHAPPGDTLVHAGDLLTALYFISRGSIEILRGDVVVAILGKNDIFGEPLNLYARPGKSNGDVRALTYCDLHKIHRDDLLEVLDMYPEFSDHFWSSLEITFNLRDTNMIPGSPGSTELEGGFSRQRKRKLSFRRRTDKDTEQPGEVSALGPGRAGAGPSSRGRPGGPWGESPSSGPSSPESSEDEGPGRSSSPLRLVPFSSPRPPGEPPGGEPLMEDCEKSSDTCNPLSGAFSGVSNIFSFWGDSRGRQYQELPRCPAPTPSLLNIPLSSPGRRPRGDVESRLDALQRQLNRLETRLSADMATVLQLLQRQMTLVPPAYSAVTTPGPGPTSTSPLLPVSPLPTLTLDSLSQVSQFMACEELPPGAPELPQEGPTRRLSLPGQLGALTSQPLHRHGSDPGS
test-summary: Inhibition of hERG expressed in CHO cells at […] by rubidium efflux assay
Assay type: toxicity, cell-based
condition-set: CHO cells that express hERG
Give the quantity in %, number only.

Take a look at these entries with their results.
[
  {
    "compound": "CS(=O)(=O)N1CCCC(CN(C(=O)Nc2ccc(F)c(Cl)c2)[C@@H]2CC[C@]3(c4cccc(C#N)c4)CC3C2)C1 (stereo partly drawn)",
    "measurement-name": "inhibition at […]",
    "result-units": "%",
    "result-value": 3
  },
  {
    "compound": "N#Cc1cccc([C@]23CC[C@@H](N(CC4CCN(C5CCOCC5)CC4)C(=O)Nc4ccc(F)c(Cl)c4)CC2C3)c1 (stereo partly drawn)",
    "measurement-name": "inhibition at […]",
    "result-units": "%",
    "result-value": 75
  },
  {
    "compound": "CS(=O)(=O)N1CCC(CN(C(=O)Nc2ccc(F)c(Cl)c2)[C@@H]2CC[C@]3(c4cccc(CN)c4)CC3C2)CC1 (stereo partly drawn)",
    "measurement-name": "inhibition at […]",
    "result-units": "%",
    "result-value": 8
  }
]

Consider the compound shown here: CC(C)N(CCN(C(=O)Nc1ccc(F)c(Cl)c1)[C@@H]1CC[C@]2(c3cccc(CO)c3)CC2C1)C(C)C (stereo partly drawn) What is its recorded inhibition at […]?
43

Endpoint output: inhibition at […] of CC(C)N(CCN(C(=O)Nc1ccc(F)c(Cl)c1)[C@@H]1CC[C@]2(c3cccc(CN4CC[C@H](O)C4)c3)CC2C1)C(C)C (stereo partly drawn) . Value?
-4

GET /values?readout=inhibition at […]&item= CS(=O)(=O)N1CCC(CN(C(=O)Nc2cc(Cl)nc(Cl)c2)[C@@H]2CC[C@]3(c4cccc(CN)c4)CC3C2)CC1 (stereo partly drawn)
-1

Report inhibition at […] for CS(=O)(=O)N1CCCCC1CN(C(=O)Nc1ccc(F)c(Cl)c1)[C@@H]1CC[C@]2(c3cccc(C#N)c3)CC2C1 (stereo partly drawn) please.
31

Sample CS(=O)(=O)N1CCC(CN(C(=O)Nc2ccc(F)c(C(F)(F)F)c2)[C@@H]2CC[C@]3(c4cccc(C#N)c4)CC3C2)CC1 (stereo partly drawn) — what was its inhibition at […]?
-1

Param item = CNC(=O)N1CCC(CN(C(=O)Nc2ccc(F)c(C(F)(F)F)c2)[C@@H]2CC[C@]3(c4cccc(C#N)c4)CC3C2)CC1 (stereo partly drawn) ; retrieve measured inhibition at […].
14

inhibition at […] for CC(=O)N1CCC(CN(C(=O)Nc2ccc(F)c(Cl)c2)[C@@H]2CC[C@]3(c4cccc(C#N)c4)CC3C2)CC1 (stereo partly drawn) ?
32

Look at this compound and give its reported inhibition at […]. CS(=O)(=O)N1CCC[C@H]1CN(C(=O)Nc1ccc(F)c(Cl)c1)[C@@H]1CC[C@]2(c3cccc(C#N)c3)CC2C1 (stereo partly drawn)
32

###

study-system: UniProt Q12809
test-summary: Inhibition of hERG expressed in CHO cells at 5 ug/mL by rubidium efflux assay
Format: toxicity, cell-based
condition-set: CHO cells that express hERG
measurement-name: inhibition at 5 ug/mL (%)
Field format: number, assumed %, no unit text.

Sample records with inhibition at 5 ug/mL:
[
  {
    "compound": "CO/N=C/c1cccc([C@]23CC[C@@H](N(CCN(C(C)C)C(C)C)C(=O)Nc4ccc(F)c(Cl)c4)CC2C3)c1 (stereo partly specified)",
    "result-value": 76
  },
  {
    "compound": "CS(=O)(=O)N1CCC(CN(C(=O)Nc2cc(Cl)nc(Cl)c2)[C@@H]2CC[C@]3(c4cccc(CN5CC[C@H](O)C5)c4)CC3C2)CC1 (stereo partly specified)",
    "result-value": 0
  },
  {
    "compound": "CC(=O)N1CCC(CN(C(=O)Nc2ccc(F)c(Cl)c2)[C@@H]2CC[C@]3(c4cccc(C#N)c4)CC3C2)CC1 (stereo partly specified)",
    "result-value": 37
  },
  {
    "compound": "CC(=O)c1ccc(C2=CCC(N(CCN3CCCC3)C(=O)Nc3ccc(F)c(Cl)c3)CC2)s1 (stereo unspecified)",
    "result-value": 43
  },
  {
    "compound": "NCc1ccc(C2=CCC(N(CCN3CCCC3)C(=O)Nc3ccc(F)c(Cl)c3)CC2)s1 (stereo unspecified)",
    "result-value": 26
  },
  {
    "compound": "CC(C)N(CCN(C(=O)Nc1ccc(F)c(Cl)c1)[C@@H]1CC[C@]2(c3cccc(CN4CCN(C)CC4)c3)CC2C1)C(C)C (stereo partly specified)",
    "result-value": 13
  },
  {
    "compound": "N#Cc1ccc(C2=CCC(N(CCN3CCCC3)C(=O)Nc3ccc(F)c(Cl)c3)CC2)s1 (stereo unspecified)",
    "result-value": 74
  },
  {
    "compound": "CC(C)N(CCN(C(=O)Nc1ccc(F)c(Cl)c1)[C@@H]1CC[C@]2(c3cccc(C#N)c3)CC2C1)C(C)C (stereo partly specified)",
    "result-value": 78
  }
]

Value lookup for inhibition at 5 ug/mL; key = CC(C)N(CCN(C(=O)Nc1ccc(F)c(Cl)c1)[C@@H]1CC[C@]2(c3cccc(CN4CC[C@H](O)C4)c3)CC2C1)C(C)C (stereo partly specified)
-1

Can you look up the measured inhibition at 5 ug/mL of CC1CC[C@@H](CO)N1CCN(C(=O)Nc1ccc(F)c(Cl)c1)[C@@H]1CC[C@]2(c3cccc(C#N)c3)CC2C1 (stereo partly specified) for me?
78

Quick check: inhibition at 5 ug/mL of NCc1ncc(C2=CCC(N(CCN3CCCC3)C(=O)Nc3ccc(F)c(Cl)c3)CC2)s1 (stereo unspecified) ?
10

Would you kindly share the measured inhibition at 5 ug/mL for CN(C)Cc1cccc([C@]23CC[C@@H](N(CC4CCN(S(C)(=O)=O)CC4)C(=O)Nc4cc(Cl)nc(Cl)c4)CC2C3)c1 (stereo partly specified) ?
7

Recorded inhibition at 5 ug/mL for CS(=O)(=O)N1CCC(CN(C(=O)Nc2ccc(F)c(Cl)c2)[C@@H]2CC[C@]3(c4cccc(C#N)c4)CC3C2)CC1 (stereo partly specified) , please?
24

Request the reported inhibition at 5 ug/mL associated with CC(C)N(CCO)CCN(C(=O)Nc1ccc(F)c(Cl)c1)[C@@H]1CC[C@]2(c3cccc(C#N)c3)CC2C1 (stereo partly specified)
88

Which value of inhibition at 5 ug/mL has been reported for CC(C)N(CCN(C(=O)Nc1ccc(F)c(Cl)c1)[C@@H]1CC[C@]2(c3cccc(C#N)c3)CC2C1)[C@@H](C)CO (stereo partly specified) in the records?
82

What does the record list as inhibition at 5 ug/mL for N#Cc1cccc([C@]23CC[C@@H](N(CC4CCN(C5CCOCC5)CC4)C(=O)Nc4ccc(F)c(Cl)c4)CC2C3)c1 (stereo partly specified) ?
91
